- Test system: microbial hyaluronidase
- Type: biochemical, Streptomyces actinocidus
- CONDITIONS USED: reagent or salt 10^−3 M
Task for the reader: assign each of the following compounds its reported Hyaluronidase activity (%).
Kindly answer with a numeric value in %, unit omitted.

// assay microbial hyaluronidase, entry [Cl-].[Na+] , Hyaluronidase activity (%) value = 100

// assay microbial hyaluronidase, entry [Cl-].[K+] , Hyaluronidase activity (%) value = 100

// assay microbial hyaluronidase, entry O=[N+]([O-])[O-].[Ag+] , Hyaluronidase activity (%) value = 100

// assay microbial hyaluronidase, entry II , Hyaluronidase activity (%) value = 12

// assay microbial hyaluronidase, entry O=S(=O)([O-])[O-].[Li+].[Li+] , Hyaluronidase activity (%) value = 100

// assay microbial hyaluronidase, entry [Cl][Fe]([Cl])[Cl] , Hyaluronidase activity (%) value = 85

// assay microbial hyaluronidase, entry OCCS , Hyaluronidase activity (%) value = 65

// assay microbial hyaluronidase, entry O=S(=O)([O-])[O-].[Zn+2] , Hyaluronidase activity (%) value = 100

// assay microbial hyaluronidase, entry O=S(=O)([O-])[O-].[Cu+2] , Hyaluronidase activity (%) value = 85

// assay microbial hyaluronidase, entry O=C(O)CN(CCN(CC(=O)O)CC(=O)O)CC(=O)O , Hyaluronidase activity (%) value = 100

// assay microbial hyaluronidase, entry O=S(=O)([O-])[O-].[Fe+2] , Hyaluronidase activity (%) value = 100

// assay microbial hyaluronidase, entry [Cl][Mn][Cl] , Hyaluronidase activity (%) value = 100

// assay microbial hyaluronidase, entry [Ca+2].[Cl-].[Cl-] , Hyaluronidase activity (%) value = 100

// assay microbial hyaluronidase, entry [N-]=[N+]=[N-].[Na+] , Hyaluronidase activity (%) value = 100

// assay microbial hyaluronidase, entry O=C(O)c1cc[c]([Hg][Cl])cc1 [para-Chloromercury-benzoate] , Hyaluronidase activity (%) value = 100
